- ASSAYED TARGET: Solute carrier family 2, facilitated glucose transporter member 1 (Homo sapiens)
- ASSAY METHOD TEXT: ST_JUDE_LEISH: Cytotoxicity at 2uM final concentration against transgenic Leishmania Mexicana promastigotes LmGLUT1 that are glucose transport deficient and complemented with the human glucose transporter GLUT1. Activity is measured by DNA content using SYBR green in vitro
- Type: functional
RECORDED METRIC: inhibition (%)
State just the number; it will be interpreted in %.

Asked: Param item = Cc1noc(C)c1-c1cccc(CNCc2cccc(-c3csc(-c4nc5ccccc5[nH]4)c3)c2)c1 ; retrieve measured inhibition.
Given back: 2.13

Asked: Param item = OCC1CCN(Cc2cccc(-c3cccc(-c4nc5cc(C(F)(F)F)ccc5[nH]4)c3)c2)CC1 ; retrieve measured inhibition.
Given back: 2.74

Asked: Param item = COc1ccc2ncc(F)c(CCN3CCC(NCc4cc5c(cn4)OCCS5)CC3)c2c1 ; retrieve measured inhibition.
Given back: 57.8

Asked: Param item = COc1ccc(CNCc2cccc(-c3ccc(-c4nc5cccc(C)c5[nH]4)cc3)c2)cc1 ; retrieve measured inhibition.
Given back: 14

Asked: Param item = CCCCCCCCCCNCC(O)c1ccc(O)c(C(=O)OC)c1 (centres undefined) ; retrieve measured inhibition.
Given back: -0.21

Asked: Param item = COc1c(C2=CCN(CCCCNC(=O)c3ccc(-c4ccc(C#N)cc4)cc3)CC2)ccc2c1CCCC2 ; retrieve measured inhibition.
Given back: 0.4

Asked: Param item = CC(C)C[C@H](NC(=O)c1cc(-c2ccc(F)cc2)no1)C(=O)O.CC(C)C[C@H](NC(=O)c1conc1-c1ccc(F)cc1)C(=O)O ; retrieve measured inhibition.
Given back: 1.19

Asked: Param item = C=CCc1c(C(=O)NCC23CC4CC(CC(C4)C2)C3)nc2ccccc2c1O ; retrieve measured inhibition.
Given back: -2.74

Asked: Param item = Cc1c(S(=O)(=O)Nc2cccc(CCN3CCCCC3CCN3CCCC3)c2)sc2ccc(Cl)cc12 (centres undefined) ; retrieve measured inhibition.
Given back: -1.39

meta.source: ChEMBL document CHEMBL3433997
